Target: GPR139 (Homo sapiens)
Sequence (Q6DWJ6 whole entry): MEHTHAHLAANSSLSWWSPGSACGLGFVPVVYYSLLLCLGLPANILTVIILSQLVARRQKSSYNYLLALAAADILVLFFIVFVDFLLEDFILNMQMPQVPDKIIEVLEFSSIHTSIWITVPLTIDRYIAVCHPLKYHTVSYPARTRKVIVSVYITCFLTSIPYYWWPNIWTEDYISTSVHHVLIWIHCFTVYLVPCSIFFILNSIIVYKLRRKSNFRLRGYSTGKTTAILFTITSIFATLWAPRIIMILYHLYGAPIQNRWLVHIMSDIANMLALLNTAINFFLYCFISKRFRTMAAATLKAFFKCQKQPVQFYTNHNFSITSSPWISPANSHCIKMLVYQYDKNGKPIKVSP
Assay: GPR139 Agonist titration / agonist counterscreen assay (calcium detection, HEK-GPR139 cells)
Assay type: cell-based
Parameters: expressed in transfected cells; host or cells: HEK Aequorin cells, Maxcyte transient transfection
Conditions: GPR139 Agonist Activity; based on logD
assayEndpoint: Lipophilic Efficiency (logD)
I only need the number, thanks.

> print(dat)
                                   compound  valuereported
1  CC(C)(C)n1c2c(c(=O)[nH]c1=O)C(NC(=O)CCC1CCCCC1)(C(F)(F)F)C(=O)N2 (centres unmarked) [SR-01000091502]           4.63
2  O=C(CC(C(=O)N1CCc2ccccc21)n1ccnc1)NCC1COc2ccccc2O1 (centres unmarked) [SR-01000144615]           6.43
3  CCc1nn(CC(=O)NCc2cccc(Br)c2)c(=O)c2cc3occc3n12 [SR-01000099472]           5.32

Problem: Which Lipophilic Efficiency (logD) value is on record for COc1cccc(C(=O)NNC(=O)COc2ccc(C)cc2Br)c1 [SR-01000369718] ?
Solution: 5.36

Problem: And what about the compound Cc1ccc(C(=O)NNC(=O)CSc2nnc(Cn3cnc4ccccc43)o2)cc1 [SR-01000337370] ?
Solution: 5.62

Problem: And what about the compound CN(C)C(CNC(=O)Nc1ccc(Cl)c(Cl)c1)c1cccnc1 (centres unmarked) [SR-01000127953] ?
Solution: 4.13

Problem: And what about the compound COc1ccc(C(C)N2CC34C=CC(O3)C(C(=O)OCC(C)C)C4C2=O)cc1 (centres unmarked) [SR-01000114500] ?
Solution: 4.21

Problem: And what about the compound O=C(COc1ccccc1F)NNC(=O)CSc1ccc2ccccc2c1 [SR-01000068761] ?
Solution: 5.00

Problem: And what about the compound COc1ccc(-c2nnn(CC(=O)NCCc3c[nH]c4ccccc34)n2)cc1OC [SR-01000339494] ?
Solution: 5.30

Problem: And what about the compound Cc1cccc(CCNC(=O)c2c[nH]c3cc(-c4cn[nH]c4)ccc23)c1 [SR-00000007279] ?
Solution: 4.81

Problem: And what about the compound CC1CCCC(NC(=O)CN2CCCN(Cc3ccc(F)cc3Cl)C2=O)C1C (centres unmarked) [SR-01000146420] ?
Solution: 4.29

Problem: And what about the compound Cc1ccc(SCC(=O)Nc2nnc(-c3ccccc3Cl)o2)cc1 [SR-01000021416] ?
Solution: 3.53

Problem: And what about the compound O=C(Cc1cccc2ccccc12)NCC(=O)NNC(=O)c1ccco1 [SR-01000069451] ?
Solution: 6.21

Problem: And what about the compound COc1ccc(NC(=O)NCCOc2cccc3ccccc23)cc1OC [SR-01000223498] ?
Solution: 4.05

Problem: And what about the compound CCC1Cc2ccc(C)cc2CC1C(=O)Nc1ccc(-c2cn[nH]c2)cc1OCCN(C)C (centres unmarked) [SR-00000007138] ?
Solution: 5.84

Problem: And what about the compound C=C(CC1C=CC2=C1c1ccccc1CC2)Nc1ccc(CC)cc1 (centres unmarked) [SR-01000098976] ?
Solution: 4.60

All values here come from patent US20250099420A1.
